From: ChEMBL document CHEMBL3507680

test: Human HepG2 cell viability assay in 384 well format; type: toxicity, cell-based; design: dose 125 nL, time 70.5 hour; concentration not given beside the values; settings: HepG2 cells, read-out: Inhibition
Listed next: entries and their corresponding cytotoxicity at 70.5 h.
PROPERTY NAME: cytotoxicity at 70.5 h (%)

INSERT INTO results (compound, property_name, observed_value) VALUES
  ('Cc1cncc(C2CCN(Cc3cnc(C)nc3)CC2)n1', 'cytotoxicity at 70.5 h', -7.22),
  ('Cn1ncc2c1C(COCC1CC1)N(Cc1ccoc1)CC2 (stereo unspecified)', 'cytotoxicity at 70.5 h', -19.6),
  ('Cc1ccc(C(=O)NCCSCc2cccs2)cn1', 'cytotoxicity at 70.5 h', 12.6),
  ('CCc1nc(CN(C)C(=O)c2cc(NC(C)=O)ccc2Cl)no1', 'cytotoxicity at 70.5 h', 18.6),
  ('CC(C)N1CCc2c(c(COc3cncnc3)nn2CC2CC2)C1', 'cytotoxicity at 70.5 h', -3.91),
  ('CCCS(=O)(=O)N1CCC2(CN(c3ccsc3)C(=O)CN2C)C1 (stereo unspecified)', 'cytotoxicity at 70.5 h', -3.38);

###

assay: Human HepG2 cell viability assay in 384 well format; type: toxicity, cell-based; design: dose 125 nL, time 70.5 hour; concentration not given beside the values; details: HepG2 cells, read-out: Inhibition
PROPERTY NAME: cytotoxicity at 70.5 h (%)

INSERT INTO results (compound, unit_label, observed_value) VALUES
  ('CCOCCCC(=O)N1CCN(C(=O)Cc2cccc(OC)c2)CC1', '%', -5.09),
  ('Cc1cc2ncn(C(=O)N3CCCC3)c2cc1C', '%', -2.26),
  ('O=C(C1CCOCC1)N1CCC2(CCC(C(=O)N3CCCC3)O2)CC1 (stereo unspecified)', '%', -6.14),
  ('Cc1ncc(CNC(CCO)C2CCCCC2)s1 (stereo unspecified)', '%', 1.31),
  ('CC(C)(C)CC(=O)N1[C@@H](c2ccco2)[C@@H](CO)C[C@]12CCCCNC2=O', '%', -5.67),
  ('Cc1cccc2nc(CN3CCCC3Cn3cncn3)cn12 (stereo unspecified)', '%', -17);

###

assay: Human HepG2 cell viability assay in 384 well format; type: toxicity, cell-based; design: dose 125 nL, time 70.5 hour; concentration not given beside the values; settings: HepG2 cells, read-out: Inhibition
Listed next: entries and their corresponding cytotoxicity at 70.5 h.
PROPERTY NAME: cytotoxicity at 70.5 h (%)

INSERT INTO measurements (compound, property_name, unit_label, observed_value) VALUES
  ('COc1cccc(-c2cc(C(=O)N3N=C(C)CC3(O)C(F)F)[nH]n2)c1 (stereo unspecified)', 'cytotoxicity at 70.5 h', '%', -11),
  ('Cn1cccc1C(=O)N1CCC2(CCCN2S(C)(=O)=O)CC1', 'cytotoxicity at 70.5 h', '%', -8.2),
  ('CN(C)CCNC(=O)c1cnc2c(c1)nc(-c1ccccc1Cl)n2C', 'cytotoxicity at 70.5 h', '%', -10.7),
  ('c1ccc(CN2C[C@H]3CCC[C@@]3(COCC3CC3)C2)nc1', 'cytotoxicity at 70.5 h', '%', -0.925),
  ('CC(O)CN1CCC(CN(C)Cc2ccc(C(N)=O)cc2)CC1 (stereo unspecified)', 'cytotoxicity at 70.5 h', '%', -9.95),
  ('c1ccc(N2CCOC3(CCCN(c4nncs4)C3)C2)nc1 (stereo unspecified)', 'cytotoxicity at 70.5 h', '%', -2.74);
